system: CYP2C9; assay: in vitro; conditions: Sprague-Dawley, rat, microsomes, pH 7.4, % inhibition
test-readout: inhibition at 7.5 min, 10 μM (%)

INSERT INTO assay_data (compound, test_readout, reported_result) VALUES
  ('COc1ccc(-c2oc3cc(O)cc(O)c3c(=O)c2O)cc1O [Tamarixetin]', 'inhibition at 7.5 min, 10 μM', 88.2);

====

tested on: CYP2C9; experiment: in vitro; details: Sprague-Dawley, rat, microsomes, pH 7.4, % inhibition of CYP2C9 activity
test-readout: inhibition at 7.5 min, 2.5 μM

INSERT INTO measurements (compound_structure_string, test_readout, reported_result) VALUES
  ('O=c1cc(-c2ccccc2)oc2cc(O)c(O)c(O)c12', 'inhibition at 7.5 min, 2.5 μM', '1.76%'),
  ('O=c1cc(-c2ccc(O)cc2)oc2cc(O)cc(O)c12', 'inhibition at 7.5 min, 2.5 μM', '21.7%'),
  ('O=C(O)[C@H]1O[C@@H](Oc2cc3oc(-c4ccccc4)cc(=O)c3c(O)c2O)[C@H](O)[C@@H](O)[C@@H]1O', 'inhibition at 7.5 min, 2.5 μM', '-5.36%');

====

Recorded inhibition at 7.5 min, 100 μM by entry
tested on: CYP2C9; assay: in vitro; conditions: Sprague-Dawley, rat, microsomes, pH 7.4, % inhibition of CYP2C9 activity
test-readout: inhibition at 7.5 min, 100 μM (%)

INSERT INTO assay_data (compound_structure_string, test_readout, units, reported_result) VALUES
  ('O=c1c(O[C@@H]2O[C@H](CO)[C@@H](O)[C@H](O)[C@H]2O)c(-c2ccc(O)c(O)c2)oc2cc(O)cc(O)c12', 'inhibition at 7.5 min, 100 μM', '%', 61.8),
  ('C[C@@H]1O[C@@H](OC[C@H]2O[C@@H](Oc3c(-c4ccc(O)c(O)c4)oc4cc(O)cc(O)c4c3=O)[C@H](O)[C@@H](O)[C@@H]2O)[C@H](O)[C@H](O)[C@H]1O', 'inhibition at 7.5 min, 100 μM', '%', -6.46),
  ('O=c1c(O)c(-c2ccc(O)cc2O)oc2cc(O)cc(O)c12', 'inhibition at 7.5 min, 100 μM', '%', 51),
  ('O=c1c(-c2ccc(O)cc2)coc2c([C@@H]3O[C@H](CO)[C@@H](O)[C@H](O)[C@H]3O)c(O)ccc12', 'inhibition at 7.5 min, 100 μM', '%', 33.3);

====

tested on: CYP2C9; assay: in vitro; conditions: Sprague-Dawley, rat, microsomes, pH 7.4, % inhibition of CYP2C9 activity
test-readout: inhibition at 7.5 min, 30 μM (%)

INSERT INTO results (compound_structure_string, test_readout, reported_result) VALUES
  ('CC(C)[C@@H](C)/C=C/[C@@H](C)[C@H]1CC[C@H]2C3=CC=C4C[C@@H](O)CC[C@]4(C)[C@H]3CC[C@]12C', 'inhibition at 7.5 min, 30 μM', 3.57);

====

test system: CYP2C9; test: in vitro; settings: Sprague-Dawley, rat, microsomes, pH 7.4
test-readout: inhibition at 7.5 min, 75 μM (%)

INSERT INTO results (compound_structure_string, reported_result) VALUES
  ('COc1cc(-c2oc3cc(O)cc(O)c3c(=O)c2O)ccc1O', 65.7);

====

system: CYP2C9; assay: in vitro; conditions: Sprague-Dawley, rat, microsomes, pH 7.4
# if value of inhibition at 7.5 min, 10 μM reaches 40%, tag MET; if it stays below, tag NOT MET

INSERT INTO measurements (compound_structure_string, measurement_target, qualitative_label) VALUES
  ('O=c1c(O)c(-c2ccc(O)c(O)c2)oc2cc(O)cc(O)c12', 'CYP2C9', 'MET'),
  ('COc1cc(-c2oc3cc(O)cc(O)c3c(=O)c2O)ccc1O', 'CYP2C9', 'MET'),
  ('O=c1cc(-c2ccccc2)oc2cc(O)cc(O)c12', 'CYP2C9', 'MET'),
  ('C[C@@H]1O[C@@H](Oc2c(-c3ccc(O)c(O)c3)oc3cc(O)cc(O)c3c2=O)[C@H](O)[C@H](O)[C@H]1O', 'CYP2C9', 'NOT MET'),
  ('O=c1c(-c2ccc(O)cc2)coc2cc(O[C@@H]3O[C@H](CO)[C@@H](O)[C@H](O)[C@H]3O)ccc12', 'CYP2C9', 'NOT MET');

====

test: in vivo; settings: Sprague-Dawley, rat, po, 1.5 mg/kg, Cmax of fluvastatin
test-readout: Cmax

INSERT INTO results (molecule, test_readout, reported_result) VALUES
  ('CC(C)n1c(/C=C/C(O)CC(O)CC(=O)O)c(-c2ccc(F)cc2)c2ccccc21 (stereo not shown)', 'Cmax', '63.1 ng/mL');

====

system: CYP2C9; assay: in vitro; conditions: Sprague-Dawley, rat, microsomes, pH 7.4, % inhibition
test-readout: inhibition at 7.5 min, 100 μM (%)

INSERT INTO assay_data (compound_structure_string, measurement_target, units, reported_result) VALUES
  ('COc1ccc(-c2oc3cc(O)cc(O)c3c(=O)c2O)cc1O', 'CYP2C9', '%', 90.2);

====

test system: CYP2C9; assay: in vitro; conditions: Sprague-Dawley, rat, microsomes, pH 7.4, % inhibition, 100 μM (high concentration)
test-readout: inhibition at 7.5 min, 100 μM (%)

INSERT INTO measurements (compound, measurement_target, test_readout, reported_result) VALUES
  ('O=c1c(-c2ccc(O)cc2)coc2cc(O)cc(O)c12 [Genistein]', 'CYP2C9', 'inhibition at 7.5 min, 100 μM', 82.7);

====

system: CYP2C9; details: test article 10 μM; tolbutamide 1 mM; rat liver microsomes
# if value of % inhibition of CYP2C9 activity reaches 7%, tag T; if it stays below, tag F

INSERT INTO assay_data (compound, qualitative_label) VALUES
  ('O=C1C[C@@H](c2ccc(O)cc2)Oc2cc(O)cc(O)c21 [Narigenin]', 'T'),
  ('COc1ccc([C@@H]2CC(=O)c3c(O)cc(O[C@@H]4O[C@H](CO[C@@H]5O[C@@H](C)[C@H](O)[C@@H](O)[C@H]5O)[C@@H](O)[C@H](O)[C@H]4O)cc3O2)cc1O [Hesperidin]', 'F'),
  ('O=c1cc(-c2ccccc2)oc2ccc3ccccc3c12 [β-Naphthoflavone]', 'F'),
  ('C=C(C)C1CC=C(C)CC1 (single isomer, unassigned; (+)) [(+)-Limonene]', 'T'),
  ('O=c1cc(-c2ccc(O)c(O)c2)oc2cc(O)c([C@@H]3O[C@H](CO)[C@@H](O)[C@H](O)[C@H]3O)c(O)c12 [Homoorientin]', 'F');

====

tested on: CYP2C9; experiment: in vitro; conditions: Sprague-Dawley, rat, microsomes, pH 7.4, % inhibition of tolbutamide metabolism in microsomes
test-readout: inhibition at 7.5 min, 100 μM

INSERT INTO assay_data (compound_structure_string, reported_result) VALUES
  ('COc1ccc(-c2oc3cc(O)cc(O)c3c(=O)c2O)cc1O', '90.2%');

====

test: in vivo; conditions: Sprague-Dawley, rat, po, 1.5 mg/kg, Cmax of fluvastatin, control group
test-readout: Cmax

INSERT INTO measurements (molecule, reported_result) VALUES
  ('CC(C)n1c(/C=C/C(O)CC(O)CC(=O)O)c(-c2ccc(F)cc2)c2ccccc21 (stereo not shown)', '63.1 ng/mL');

====

test system: CYP2C9; assay: in vitro; settings: Sprague-Dawley, rat, microsomes, pH 7.4, % inhibition of CYP2C9 activity
test-readout: inhibition at 7.5 min, 100 μM

INSERT INTO assay_data (compound, reported_result) VALUES
  ('O=c1ccc2ccc(O)cc2o1', '-2.02%'),
  ('O=C1C[C@@H](c2ccc(O[C@@H]3O[C@H](CO)[C@@H](O)[C@H](O)[C@H]3O)cc2)Oc2cc(O)ccc21', '24.8%'),
  ('O=C1C[C@@H](c2ccc(O)c(O)c2)Oc2cc(O)cc(O)c21', '69.6%'),
  ('C[C@@]12C[C@@]3(O)O[C@@H](O1)[C@]1(COC(=O)c4ccccc4)[C@H]3C[C@@]12O[C@@H]1O[C@H](CO)[C@@H](O)[C@H](O)[C@H]1O', '-1.77%'),
  ('CC1(C)[C@@H](O[C@H]2O[C@H](C(=O)O)[C@@H](O)[C@H](O)[C@H]2O[C@@H]2O[C@H](C(=O)O)[C@@H](O)[C@H](O)[C@H]2O)CC[C@]2(C)[C@H]3C(=O)C=C4[C@@H]5C[C@@](C)(C(=O)O)CC[C@]5(C)CC[C@@]4(C)[C@]3(C)CC[C@@H]12', '4.87%'),
  ('O=C(CCc1ccc(O)cc1)c1c(O)cc(O)cc1O', '95.1%'),
  ('CC(=O)OCCCc1ccccc1 [3-Phenylpropyl Acetate]', '42.6%'),
  ('O=c1cc(-c2ccc(O)c(O)c2)oc2cc(O)cc(O)c12', '93.2%'),
  ('COc1ccc(-c2oc3cc(O)cc(O)c3c(=O)c2O)cc1O', '90.2%'),
  ('O=C(O)/C=C/c1ccccc1 [trans-cinnamic acid]', '26.1%'),
  ('CC(Cc1ccc(O)c(O)c1)C(C)Cc1ccc(O)c(O)c1 (centres unmarked) [Nordihydroguaiaretic acid]', '81.2%');
